- targetSystem: CD74 on CD74 positive SU-DHL-6 cells, P04233
- Sequence (P04233 whole entry): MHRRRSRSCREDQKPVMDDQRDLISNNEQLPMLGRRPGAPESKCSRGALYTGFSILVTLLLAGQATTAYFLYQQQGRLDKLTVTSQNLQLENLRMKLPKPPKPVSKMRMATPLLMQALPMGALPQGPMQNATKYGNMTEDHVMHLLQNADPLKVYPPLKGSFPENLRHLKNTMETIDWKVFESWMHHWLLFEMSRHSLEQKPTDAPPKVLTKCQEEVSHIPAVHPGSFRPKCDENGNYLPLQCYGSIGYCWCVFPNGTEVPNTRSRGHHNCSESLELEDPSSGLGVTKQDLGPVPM
- assayDetails: cell-based or functional assay
Task for the reader: assign each of the following binders its reported 2nd ADC Cell Killing IC50.
One number for each entry, in pM.

binder	2nd ADC Cell Killing IC50 (pM)
1193-C08 (scFv) scFv: EVQLLESGGGLVQPGGSLRLSCAASGFTFNNNWMSWVRQAPGKGLEWVGIINGDDGYTYYADRVKGRFTIIRDNSKNTLYLQMNSLRAEDTAVYYCAKVALGRPRRFDYWGQGTLVTVSSGGGGSGGGGSGGGGSEIVLTQSPGTLSLTPGERATLSCRASQSVSSNYLAWYQQKPGQAPRLLIYGASSRATGIPDRFSGSGSGTDFTLTISRLEPEDFAMYYCQQHYTTPPTFGQGTKVEIK	8660

Required: 2nd ADC Cell Killing IC50, one value per binder below.
1. 1337-A09 light chain paired with VH 1251-A06 (SEQ ID NO: 236) (Fab, V domains shown) VH: QVQLVESGGGVVQPGRSLRLSCAASGFDFSSYGMHWVRQAPDKGLEWVAVIWDDGSDRYYADSVKGRFTISRDNSKNTLYLQMNSLRAEDTAVYYCARGGTRVLGAIHGTDVWGQGTTVTVSS VL: DIQMTQSPSSLSASVGDRVTITCRASQGIGSWLAWYQQKPEKAPKSLIYAADRLQSGVPSRFSGSGSGTDFTLTISSLQPEDFATYYCQQYHTYPLTFGGGTKVEIK
2. 1251-D09 heavy chain paired with VL SEQ ID NO: 272 (antibody, V domains shown) VH: QVQLVESGGGVVQPGRSLRLSCAASGFSFSSYGMHWVRQAPDKGLEWVAVIWYDASIRKYAGSVKGRFTISRDNSKNTLYLQMNSLRAEDTAVYYCARGGTVERGAIYGTDVWGQGTTVTVSS VL: DIQMTQSPSSLSASVGDRVTITCRASQGISSWLAWYQQKPEKAPKSLIYAASSLQSGVPSRFSGSGSGTDFTLTISSLQPEDFATYYCQQYNSYPLTFGGGTKVEIK

Return:
4
7

Required: 2nd ADC Cell Killing IC50, one value per binder below.
1. 1337-A05 light chain paired with VH 1251-A06 (SEQ ID NO: 236) (Fab, V domains shown) VH: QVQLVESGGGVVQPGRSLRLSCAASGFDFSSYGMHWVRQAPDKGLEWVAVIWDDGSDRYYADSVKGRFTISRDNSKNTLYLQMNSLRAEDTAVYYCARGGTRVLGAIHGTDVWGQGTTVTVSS VL: DIQMTQSPSSLSASVGDRVTITCRASQGIGRWVAWYQQKPEKAPKSLIYGADRLQSGVPSRFSGSGSGTDFTLTISSLQPEDFATYYCQQYNSYPLTFGGGTKVEIK
2. 1251-G02 heavy chain paired with VL SEQ ID NO: 272 (antibody, V domains shown) VH: QVQLVESGGGVVQPGRSLRLSCAASGFTFSSYGMHWVRQAPDKGLEWVAVIWHDGSKDYYADSVKGRFTISRDNSKNTLYLQMNSLRAEDTAVYYCARGGQLDHGAIYGLDVWGQGTTVTVSS VL: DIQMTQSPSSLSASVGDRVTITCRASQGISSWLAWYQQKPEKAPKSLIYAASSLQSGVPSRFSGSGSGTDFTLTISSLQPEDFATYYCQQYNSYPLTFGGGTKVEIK
3. 1337-A07 light chain paired with VH 1251-A06 (SEQ ID NO: 236) (Fab, V domains shown) VH: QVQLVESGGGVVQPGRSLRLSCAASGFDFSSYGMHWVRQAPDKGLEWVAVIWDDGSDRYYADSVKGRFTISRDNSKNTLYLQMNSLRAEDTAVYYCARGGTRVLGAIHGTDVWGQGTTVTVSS VL: DIQMTQSPSSLSASVGDRVTITCRASQGISSWVAWYQQKPEKAPKSLIYGASRLQSGVPSRFSGSGSGTDFTLTISSLQPEDFATYYCQQYHTYPLTFGGGTKVEIK
4. 1193-B06 (scFv) scFv: EVQLLESGGGLVQPGGSLRLSCAASGFTFTGNWMSWVRQAPGKGLEWVGIIYGTSGATYYADSVKGRFTISRDNSKNTLYLQMNSLRAEDTAVYYCAKPSMSGSRGFDYWGQGTLVTVSSGGGGSGGGGSGGGGSEIVLTQSPGTLSLSPGERATLSCRAGQSVSSSYLAWYQQKPGQAPRLLIYGASSRATGIPDRFSGSGSGTDFTLTISRLEPEDFAVYYCQQHYTTPPTFGQGTKVEIK
5. 1251-A06 heavy chain paired with VL SEQ ID NO: 272 (antibody, V domains shown) VH: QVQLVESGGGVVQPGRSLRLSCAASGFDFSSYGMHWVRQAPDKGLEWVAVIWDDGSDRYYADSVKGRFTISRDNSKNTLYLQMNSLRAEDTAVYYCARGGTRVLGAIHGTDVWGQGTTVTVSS VL: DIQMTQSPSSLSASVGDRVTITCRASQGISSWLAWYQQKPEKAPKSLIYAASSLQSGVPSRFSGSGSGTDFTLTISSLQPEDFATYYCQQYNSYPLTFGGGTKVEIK

Return:
4
13
4
10300
0.2

Required: 2nd ADC Cell Killing IC50, one value per binder below.
1. 1337-A06 light chain paired with VH 1251-A06 (SEQ ID NO: 236) (Fab, V domains shown) VH: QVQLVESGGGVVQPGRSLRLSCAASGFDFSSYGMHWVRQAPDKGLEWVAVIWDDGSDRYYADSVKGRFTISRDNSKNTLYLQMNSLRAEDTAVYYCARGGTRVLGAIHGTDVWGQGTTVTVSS VL: DIQMTQSPSSLSASVGDRVTITCRASQDIGSWVAWYQQKPEKAPKSLIYGADRLQSGVPSRFSGSGSGTDFTLTISSLQPEDFATYYCQQYNSYPLTFGGGTKVEIK
2. 1251-F06 heavy chain paired with VL SEQ ID NO: 272 (antibody, V domains shown) VH: QVQLVESGGGVVQPGRSLRLSCAASGFTFSSFGMHWVRQAPDKGLEWVAVIWYDGSNEYYADSVKGRFTISRDNSKNTLYLQMNSLRAEDTAVYYCARGGSLVTRGVYGLDVWGQGTTVTVSS VL: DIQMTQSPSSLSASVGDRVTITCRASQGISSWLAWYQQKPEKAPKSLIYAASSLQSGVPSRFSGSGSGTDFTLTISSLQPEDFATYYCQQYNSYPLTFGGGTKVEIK

Return:
1: 4; 2: 17
